Target: purified PARP protein (Homo sapiens, UniProt P09874)
Sequence (P09874 whole entry): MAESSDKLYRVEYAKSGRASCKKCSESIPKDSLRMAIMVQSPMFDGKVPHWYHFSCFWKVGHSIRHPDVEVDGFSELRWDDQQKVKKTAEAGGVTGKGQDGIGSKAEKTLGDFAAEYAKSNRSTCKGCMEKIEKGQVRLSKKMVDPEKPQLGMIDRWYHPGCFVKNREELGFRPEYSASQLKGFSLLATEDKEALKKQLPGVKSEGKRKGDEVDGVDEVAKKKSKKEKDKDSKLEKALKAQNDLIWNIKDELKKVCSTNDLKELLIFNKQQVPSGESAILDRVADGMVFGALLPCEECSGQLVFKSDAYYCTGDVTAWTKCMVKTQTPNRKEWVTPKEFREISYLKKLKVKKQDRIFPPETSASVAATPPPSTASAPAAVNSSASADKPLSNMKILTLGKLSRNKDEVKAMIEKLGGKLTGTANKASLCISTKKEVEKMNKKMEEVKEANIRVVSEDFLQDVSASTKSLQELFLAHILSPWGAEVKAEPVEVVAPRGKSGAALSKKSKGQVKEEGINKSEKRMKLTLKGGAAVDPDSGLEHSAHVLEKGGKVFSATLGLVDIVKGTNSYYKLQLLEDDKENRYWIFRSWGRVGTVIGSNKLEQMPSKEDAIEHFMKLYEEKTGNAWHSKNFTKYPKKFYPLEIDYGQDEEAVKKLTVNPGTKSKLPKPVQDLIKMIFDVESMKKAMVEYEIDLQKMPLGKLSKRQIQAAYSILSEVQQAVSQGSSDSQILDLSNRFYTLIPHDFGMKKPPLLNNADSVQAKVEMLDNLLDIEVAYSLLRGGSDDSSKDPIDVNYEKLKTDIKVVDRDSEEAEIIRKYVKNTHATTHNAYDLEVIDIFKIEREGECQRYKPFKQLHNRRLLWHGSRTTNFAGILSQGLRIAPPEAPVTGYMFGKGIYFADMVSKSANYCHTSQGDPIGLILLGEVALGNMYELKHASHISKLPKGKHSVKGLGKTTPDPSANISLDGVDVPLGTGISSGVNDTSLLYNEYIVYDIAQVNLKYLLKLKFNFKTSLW
Test: PARP enzyme inhibition assay
Assay type: biochemical
Conditions: 20 nM purified PARP (5 nM for tight-binding inhibitors), 500 μM NAD+, 25° C.; several values in one cell = repeat determinations; read-out: Inhibition Constant Ki
attribute-measured: log10(Ki) (log10 of the value in nM)

molecule=N#Cc1c(-c2ccc(F)cc2)n2c3c(cccc13)C(=O)NCC2 readout_number=1.73
molecule=O=C1NCCn2c(-c3ccc(CNCC(F)(F)F)cc3)nc3cccc1c32 readout_number=0.79
molecule="CN(Cc1ccc(-c2nc3cccc4c3n2CCNC4=O)cc1)CC(O)CO (stereo not shown)" readout_number=0.95
molecule=O=C1NCCn2c(SCc3ccccc3)nc3cccc1c32 readout_number=1.38
molecule=O=C1NCCn2c(-c3ccc(-c4ncc[nH]4)cc3)nc3cccc1c32 readout_number=0.51
molecule="CN1CCCCC1c1ccc(-c2nc3cccc4c3n2CCNC4=O)cc1 (stereo not shown)" readout_number=0.83
molecule=O=C1NCCn2c(-c3ccc(CNC4CCC4)cc3)nc3cccc1c32 readout_number=0.68
molecule=CCOCCNCc1ccc(-c2nc3cccc4c3n2CCNC4=O)cc1 readout_number=0.43
molecule=O=C1NCCn2c(-c3ccno3)nc3cccc1c32 readout_number=1.00
molecule=COC(=O)CCCc1cc2cccc3c2n1CCNC3=O readout_number=2.06

* * *

Listed compounds paired with reported melting point
Counter-ions that a name gives are not always drawn.
attribute-measured: melting point

compound=O=C1NCCn2c(-c3ccc(=O)n(Cc4ccccc4)c3)nc3cccc1c32 attribute_measured="melting point" result="265 to 269 °C (dec.)"
compound=O=C1NCCn2c(-c3ccc(Oc4ccccc4)cc3)nc3cccc1c32 attribute_measured="melting point" result="259 to 264 °C"
compound=O=C1NCCn2c(-c3ccc(-n4ccnc4)cc3)nc3cccc1c32 attribute_measured="melting point" result="> 300 °C (dec.)"
compound=O=Cc1ccc(-c2cc3cc(F)cc4c3n2CCNC4=O)cc1 attribute_measured="melting point" result="212 to 214 °C"
compound=O=C1NCCn2c(-c3ccc(C4CCNCC4)cc3)nc3cccc1c32 attribute_measured="melting point" result="> 192 °C (dec.)"
compound=O=C1NCCn2c(-c3ccc(CN4CCOCC4)cc3)nc3cccc1c32 attribute_measured="melting point" result="285 to 286 °C (dec.)"
compound=O=Cc1cccc(-c2cc3cccc4c3n2CCNC4=O)c1 attribute_measured="melting point" result="192 to 194 °C"
compound=O=C1NCCn2c(-c3cccc(Oc4ccccc4)c3)nc3cccc1c32 attribute_measured="melting point" result="216 to 219 °C"
compound="CC(O)c1c(-c2ccc(F)cc2)n2c3c(cccc13)C(=O)NCC2 (centres unmarked)" attribute_measured="melting point" result="220 to 222 °C"
compound=O=C1NCCn2c(-c3ccc(CO)cc3)nc3cc(F)cc1c32 attribute_measured="melting point" result="273 to 275 °C"
compound="O=C1NCCn2c(-c3ccc(C4CCCNC4)cc3)nc3cccc1c32 (centres unmarked)" attribute_measured="melting point" result="> 230 °C (dec.)"
compound=CN(C)Cc1cccc(-c2cc3cccc4c3n2CCNC4=O)c1 attribute_measured="melting point" result="98 to 100 °C"
compound="N/N=C(\\N)c1c(-c2ccc(F)cc2)n2c3c(cccc13)C(=O)NCC2 (as salt: hydrochloride)" attribute_measured="melting point" result="272 to 274 °C"
compound=O=Cc1c(-c2ccc(F)cc2)n2c3c(cccc13)C(=O)NCC2 attribute_measured="melting point" result="268 to 270 °C"
compound=O=C1NCCn2c(-c3ccc(OCCN4CCCC4)cc3)nc3cccc1c32 attribute_measured="melting point" result="172 to 175 °C"
compound=Cn1nnc(-c2ccc(-c3nc4cccc5c4n3CCNC5=O)cc2)n1 attribute_measured="melting point" result="280 °C (dec.)"
compound=NC(=O)c1ccc(Oc2ccc(-c3nc4cccc5c4n3CCNC5=O)cn2)cc1 attribute_measured="melting point" result="244 to 248 °C (dec.)"
compound=CCOC(OCC)c1ccc(-c2nc3cccc4c3n2CCNC4=O)cc1 attribute_measured="melting point" result="213 to 215 °C"
compound=N#Cc1ccc(Oc2ccc(-c3nc4cccc5c4n3CCNC5=O)cn2)cc1 attribute_measured="melting point" result="281 to 288 °C (dec.)"
compound=CNCc1cccc(-c2cc3cccc4c3n2CCNC4=O)c1 attribute_measured="melting point" result="128 to 130 °C"
compound=O=C1NCCn2c(-c3ccno3)nc3cccc1c32 attribute_measured="melting point" result="226 °C (dec.)"
compound=O=C1NCCn2c(-c3cccc(CN4CCCC4)c3)nc3cccc1c32 attribute_measured="melting point" result="92 °C (dec.)"
compound=O=C1NCCn2c(-c3ccc(CNC4CC4)cc3)nc3cccc1c32 attribute_measured="melting point" result="84 °C (dec.)"
compound=O=C1NCCn2c(-c3ccc(-c4ccccn4)cc3)nc3cccc1c32 attribute_measured="melting point" result="277 to 279 °C"
compound=C[C@H]1Cn2c(-c3ccc(Cl)cc3)nc3cccc(c32)C(=O)N1 attribute_measured="melting point" result="244 to 246 °C"
compound=CS(=O)(=O)c1nc2cccc3c2n1CCNC3=O attribute_measured="melting point" result="> 190 °C (dec.)"
